These measurements were taken from the supplement of paper PMC10307832.

Listed below: relative viability values for each entry.
Test system: NCI-H1792
Experiment Description: relative viability (nuclei count vs DMSO), 5 days (fraction); higher = more cells survive
Condition Set: first compound 0.1581 µM
Form: value (number only, do not type unit).

# Molecule, Attribute Measured, Recorded Value
data = [
    ("Nc1ccn([C@@H]2O[C@H](CO)[C@@H](O)[C@@H]2O)c(=O)n1 [Cytarabine] + CS(=O)(=O)N1CCN(Cc2cc3nc(-c4cccc5[nH]ncc45)nc(N4CCOCC4)c3s2)CC1 [Pictilisib] (partner 1 µM)", "relative viability", 0.174),
    ("Nc1ccn([C@@H]2O[C@H](CO)[C@@H](O)[C@@H]2O)c(=O)n1 [Cytarabine] + CC1(C)CCC(c2ccc(Cl)cc2)=C(CN2CCN(c3ccc(C(=O)NS(=O)(=O)c4ccc(N[C@H](CCN5CCOCC5)CSc5ccccc5)c(S(=O)(=O)C(F)(F)F)c4)cc3)CC2)C1 [Navitoclax] (partner 0.5 µM)", "relative viability", 0.304),
    ("COc1cc2nccc(Oc3ccc(NC(=O)Nc4cc(C)on4)c(Cl)c3)c2cc1OC [Tivozanib] + Cc1nc(NC(=O)N2CCC[C@H]2C(N)=O)sc1-c1ccnc(C(C)(C)C(F)(F)F)c1 [Alpelisib] (partner 2 µM)", "relative viability", 0.847),
]

Now examine the next entry.
Inquiry: Report measured relative viability; entry is Nc1ccn([C@@H]2O[C@H](CO)[C@@H](O)[C@@H]2O)c(=O)n1 [Cytarabine] + NC(=O)Nc1cc(-c2cccc(F)c2)sc1C(=O)N[C@H]1CCCNC1 [AZD7762] (partner 0.2 µM)
Reply text: 0.0675

* * *

Test system: HCC-827
Experiment Description: relative viability (nuclei count vs DMSO), 5 days (fraction); higher = more cells survive
Condition Set: first compound 0.8 µM
Listed below: relative viability values for each entry.
Form: value (number only, do not type unit).

Worked examples, 3 molecules total:
# Molecule, Attribute Measured, Recorded Value
records = [
    ("Cc1cnc(-c2cnc(NCCNc3ccc(C#N)cn3)nc2-c2ccc(Cl)cc2Cl)[nH]1 + COc1cccc2cc(-c3nc([C@H]4CC[C@H](C(=O)O)CC4)n4ncnc(N)c34)[nH]c12 [OSI-027] (partner 0.5 µM)", "relative viability", 0.814),
    ("Cc1cnc(-c2cnc(NCCNc3ccc(C#N)cn3)nc2-c2ccc(Cl)cc2Cl)[nH]1 + CC(=O)Nc1cccc(-n2c(=O)n(C3CC3)c(=O)c3c(Nc4ccc(I)cc4F)n(C)c(=O)c(C)c32)c1 [Trametinib] (partner 0.02 µM)", "relative viability", 0.522),
    ("O=c1[nH]c2ccccc2n1C1CCN(CCCC(c2ccc(F)cc2)c2ccc(F)cc2)CC1 [Pimozide] + CS(=O)(=O)CCNCc1ccc(-c2ccc3ncnc(Nc4ccc(OCc5cccc(F)c5)c(Cl)c4)c3c2)o1 [Lapatinib] (partner 2 µM)", "relative viability", 0.189),
]

Now examine the next entry.
Inquiry: Specify the recorded relative viability for Cc1cnc(-c2cnc(NCCNc3ccc(C#N)cn3)nc2-c2ccc(Cl)cc2Cl)[nH]1 + CS(=O)(=O)N1CCN(Cc2cc3nc(-c4cccc5[nH]ncc45)nc(N4CCOCC4)c3s2)CC1 [Pictilisib] (partner 1 µM) , system: HCC-827.
Reply text: 0.951

* * *

System: EKVX
Experiment Description: relative viability (nuclei count vs DMSO), 5 days (fraction); higher = more cells survive
Condition Set: first compound 1.265 µM
Listed below: relative viability values for each entry.
Form: value (number only, do not type unit).

Worked examples, 3 molecules total:
# Molecule, relative viability
measured = [
    ("Cc1sc2c(c1C)C(c1ccc(Cl)cc1)=N[C@@H](CC(=O)OC(C)(C)C)c1nnc(C)n1-2 [JQ1] + CC(=O)c1c(C)c2cnc(Nc3ccc(N4CCNCC4)cn3)nc2n(C2CCCC2)c1=O [Palbociclib] (partner 0.5 µM)", 0.368),
    ("Cc1sc2c(c1C)C(c1ccc(Cl)cc1)=N[C@@H](CC(=O)OC(C)(C)C)c1nnc(C)n1-2 [JQ1] + Cc1nc(NC(=O)N2CCC[C@H]2C(N)=O)sc1-c1ccnc(C(C)(C)C(F)(F)F)c1 [Alpelisib] (partner 2 µM)", 0.729),
    ("Cc1sc2c(c1C)C(c1ccc(Cl)cc1)=N[C@@H](CC(=O)OC(C)(C)C)c1nnc(C)n1-2 [JQ1] + CS(=O)(=O)N1CCN(Cc2cc3nc(-c4cccc5[nH]ncc45)nc(N4CCOCC4)c3s2)CC1 [Pictilisib] (partner 1 µM)", 0.359),
]

Now examine the next entry.
Inquiry: Report measured relative viability; entry is Cc1sc2c(c1C)C(c1ccc(Cl)cc1)=N[C@@H](CC(=O)OC(C)(C)C)c1nnc(C)n1-2 [JQ1] + Cc1nc(Nc2ncc(C(=O)Nc3c(C)cccc3Cl)s2)cc(N2CCN(CCO)CC2)n1 [Dasatinib] (partner 0.075 µM)
Reply text: 0.45
